Ref: patent US20120207760A1

Target: recombinant homotrimeric HA, A/chicken/Vietnam/NCVD-016/08 H5N1 (Influenza A virus A/chicken/Vietnam/NCVD-016/08 (H5N1))
Experiment: trimeric HA microarray, transfection set 3
Conditions: remark: other sources report otherwise
Reported Trimeric HA Binding RLU values for a set of binders
Answer with a number only, understood to be in RLU.

binder="TCN-504 (3251_K17) (antibody, V domains shown) VH: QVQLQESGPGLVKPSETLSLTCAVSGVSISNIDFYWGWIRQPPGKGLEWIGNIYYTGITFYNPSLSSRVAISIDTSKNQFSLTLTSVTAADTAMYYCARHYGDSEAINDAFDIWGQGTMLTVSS VL: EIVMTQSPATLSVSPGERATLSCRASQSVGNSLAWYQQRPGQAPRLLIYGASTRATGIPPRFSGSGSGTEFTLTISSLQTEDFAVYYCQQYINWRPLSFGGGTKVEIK" readout_name="Trimeric HA Binding RLU" unit_descriptor=RLU quantitative_readout=10300

Determine from records and report Trimeric HA Binding RLU for TCN-530 (5248_H10a) (antibody, V domains shown) VH: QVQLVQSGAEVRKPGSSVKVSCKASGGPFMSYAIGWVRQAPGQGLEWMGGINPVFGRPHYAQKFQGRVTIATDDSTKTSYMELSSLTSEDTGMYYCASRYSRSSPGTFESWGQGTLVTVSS VL: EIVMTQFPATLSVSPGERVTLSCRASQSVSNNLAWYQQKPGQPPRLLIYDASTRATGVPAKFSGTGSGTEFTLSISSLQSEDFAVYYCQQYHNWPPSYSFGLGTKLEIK 18000
